The values you see were collected from paper PMC5540273.

- System: HCK;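 also: KINOMEscan kinase panel screen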
- Details: concentration: 1 μM, replicates: in singlicate; n = 1
Each item that follows carries a reported %Inh.

- Molecule: "CC(=O)Nc1nc2cnc(Nc3cc(NC(=O)c4cccc(C5(C#N)CC5)c4Cl)ccc3C)nc2s1"
  Experimental System: "HCK"
  %Inh: "53%"
- Molecule: "CCS(=O)(=O)c1ccc(OC)c(Nc2nccc(-c3c(-c4cccc(NC(=O)c5c(F)cccc5F)c4)nn4ncccc34)n2)c1 [GSK326180]"
  Experimental System: "HCK"
  %Inh: "77%"
- Molecule: "O=C(Nc1n[nH]c2cc(-c3ccoc3)ccc12)C1CC1 [SB-738481]"
  Experimental System: "HCK"
  %Inh: "0%"
- Molecule: "Cc1occc1-c1ncc(OC[C@@H](N)Cc2c[nH]c3ccccc23)cc1-c1ccc2[nH]nc(C)c2c1.O=C(O)C(F)(F)F [GSK682037]"
  Experimental System: "HCK"
  %Inh: "0%"
- Molecule: "Cc1cccc(NC(=O)Nc2ccc(Oc3ncnc4ccn(C)c34)cc2)c1"
  Experimental System: "HCK"
  %Inh: "25%"
- Molecule: "Nc1ncnc2c1nc(-c1ccccc1)n2-c1ccccc1 [SKF-97293]"
  Experimental System: "HCK"
  %Inh: "27%"
